Target: T1, human [1-305]-mouse chimeric EL (human; mouse, UniProt Q9WVG5 306-500)
T1 construct: Heparin extract, captured or detected by an anti-C2-tag antibody; also called human-mouse chimeric EL
T1 sequence: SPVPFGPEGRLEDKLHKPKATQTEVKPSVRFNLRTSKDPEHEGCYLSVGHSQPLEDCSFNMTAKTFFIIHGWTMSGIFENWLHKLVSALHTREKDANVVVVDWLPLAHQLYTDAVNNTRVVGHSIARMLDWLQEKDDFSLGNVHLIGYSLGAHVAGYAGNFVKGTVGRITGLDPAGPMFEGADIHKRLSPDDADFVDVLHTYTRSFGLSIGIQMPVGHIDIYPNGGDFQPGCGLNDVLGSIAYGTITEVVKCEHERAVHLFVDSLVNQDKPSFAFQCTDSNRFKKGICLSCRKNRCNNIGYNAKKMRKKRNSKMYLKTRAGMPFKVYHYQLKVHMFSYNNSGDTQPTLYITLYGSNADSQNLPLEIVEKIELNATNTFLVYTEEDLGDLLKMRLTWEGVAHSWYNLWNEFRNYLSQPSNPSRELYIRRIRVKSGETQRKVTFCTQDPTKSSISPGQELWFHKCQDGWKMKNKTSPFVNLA
Assay: Biacore; EL captured by anti-C2-tag Ab; bivalent fit
So I've got a bunch of binders here, and I need their log10 of kon values.
Would you kindly interpret these values as log10 of kon expressed in M⁻¹ s⁻¹?

[Q] Input h55A1-S2 (antibody, V domains shown, humanized) VH: QVQLVQSGSELKKPGASVKVSCKASGYTFTNYGLNWVRQAPGQGLEWMGWINTYSGVPTYAGDFKGRFVFSLDTSVSTAYLQISSLKAEDTAVYYCARRGYYGRRFFDVWGKGTTVTVSS VL: DIVLTQSPASLAVSPGQRATITCKASQSVDYDVDSYMHWYQQKPGQPPKLLIYAASNLASGVPARFSGSGSGTDFTLTINPVEANDTANYYCQQTIEDPPTFGGGTKVEIK , output reported log10 of kon.
[A] 4.54

[Q] Find the measured log10 of kon of h16B3-S2 (antibody, V domains shown, humanized) VH: EVQLVESGGGLVQPGGSLRLSCAASGFTFSGYTMSWVRQAPGKGLEWVSEISFARDRAFYPDTVKGRFTISRDNSKNTLYLQMNSLRAEDTAVYYCARLGGRNHDYWYFDVWGQGTTVTVSS VL: DIVMTQSPDSLAVSLGERATINCRASESVEYYGTSLMQWYQQKPGQPPKLLIYAASNVESGVPDRFSGSGSGTDFTLTISSLQAEDVAVYYCQQSWKVPFTFGQGTKLEIK and report it.
[A] 4.38

[Q] Give a short answer stating reported log10 of kon for h55A1-F1 (antibody, V domains shown, humanized) VH: QVQLVQSGSELKKPGASVKVSCKASGYTFTNYGMNWVRQAPGQGLEWMGWINTYSGVPTYAGDFKGRFVFSLDTSVSTAYLQISSLKAEDTAVYYCARRGYYGRRYFDVWGKGTTVTVSS VL: DIQLTQSPSSLSASVGDRVTITCKASQSVDYDVDSYMHWYQQKPGKAPKLLIYAASNLASGVPSRFSGSGSGTDFTFTISSLQPEDIATYYCQQTIEDPPTFGGGTKVEIK .
[A] 5.30

[Q] Name the recorded log10 of kon of the item h55A1-S5 (antibody, V domains shown, humanized) VH: QVQLVQSGSELKKPGASVKVSCKASGYTFTNYAMNWVRQAPGQGLEWMGWINTYSGVGTYAGDFKGRFVFSLDTSVSTAYLQISSLKAEDTAVYYCARRGFYGRRFFDVWGKGTTVTVSS VL: DIVLTQSPASLAVSPGQRATITCKASQSVDYDVDSYMHWYQQKPGQPPKLLIYAASNLASGVPARFSGSGSGTDFTLTINPVEANDTANYYCQNTIEDPPTFGGGTKVEIK in your answer.
[A] 4.43

[Q] Give a short answer stating reported log10 of kon for h16B3-S4 (antibody, V domains shown, humanized) VH: EVQLVESGGGLVQPGGSLRLSCAASGFTFSGYTMSWVRQAPGKGLEWVSEISFARDRAFYPDTVKGRFTISRDNSKNTLYLQMNSLRAEDTAVYYCARLGGKNHDFWYFDVWGQGTTVTVSS VL: DIVMTQSPDSLAVSLGERATINCRASESVEYYGTSLMQWYQQKPGQPPKLLIYAASNVESGVPDRFSGSGSGTDFTLTISSLQAEDVAVYYCQQSWRVPFTFGQGTKLEIK .
[A] 4.79

[Q] Dear colleague, please send me the reported log10 of kon for h16B3-S3 (antibody, V domains shown, humanized) VH: EVQLVESGGGLVQPGGSLRLSCAASGFTFSGYTMSWVRQAPGKGLEWVSEISFARDRAFYPDTVKGRFTISRDNSKNTLYLQMNSLRAEDTAVYYCARLGGKNHDFWYFDVWGQGTTVTVSS VL: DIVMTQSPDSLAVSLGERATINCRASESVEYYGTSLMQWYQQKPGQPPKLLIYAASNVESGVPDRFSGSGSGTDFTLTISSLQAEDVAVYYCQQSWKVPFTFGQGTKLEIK when you can.
[A] 4.48

[Q] Answer with the recorded log10 of kon for the binder listed here: h16B3-F3 (antibody, V domains shown, humanized) VH: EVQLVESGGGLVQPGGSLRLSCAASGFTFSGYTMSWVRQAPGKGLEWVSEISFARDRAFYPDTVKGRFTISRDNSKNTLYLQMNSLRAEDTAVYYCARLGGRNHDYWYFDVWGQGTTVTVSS VL: EIVLTQSPGTLSLSPGERATLSCRASESVEYYGTSLMQWYQQKPGQAPRLLIYAASNVESGIPDRFSGSGSGTDFTLTISRLEPEDFAVYYCQQSWKVPFTFGQGTKLEIK
[A] 4.28

[Q] Please look at this binder and report its log10 of kon: h55A1-F3 (antibody, V domains shown, humanized) VH: QVQLVQSGAEVKKPGASVKVSCKASGYTFTNYGMNWVRQAPGQGLEWMGWINTYSGVPTYAGDFKGRVTMTTDTSTSTAYMELRSLRSDDTAVYYCARRGYYGRRYFDVWGKGTTVTVSS VL: DIQLTQSPSSLSASVGDRVTITCKASQSVDYDVDSYMHWYQQKPGKAPKLLIYAASNLASGVPSRFSGSGSGTDFTLTISSLQPEDFATYYCQQTIEDPPTFGGGTKVEIK
[A] 5.04

[Q] For h16B3-S5 (antibody, V domains shown, humanized) VH: EVQLVESGGGLVQPGGSLRLSCAASGFTFSGYTMSWVRQAPGKGLEWVSEISFARDRAFYPDTVKGRFTISRDNSKNTLYLQMNSLRAEDTAVYYCARLGGKNRDFWYFDLWGQGTTVTVSS VL: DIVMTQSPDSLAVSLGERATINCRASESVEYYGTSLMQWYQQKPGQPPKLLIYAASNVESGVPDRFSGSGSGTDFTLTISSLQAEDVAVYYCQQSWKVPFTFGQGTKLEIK , write its log10 of kon.
[A] 4.73

[Q] Provide measured log10 of kon value, entry: h16B3-S6 (antibody, V domains shown, humanized) VH: EVQLVESGGGLVQPGGSLRLSCAASGFTFSGYTMSWVRQAPGKGLEWVSEISFARDRAFYPDTVKGRFTISRDNSKNTLYLQMNSLRAEDTAVYYCARLGGKNRDFWYFDLWGQGTTVTVSS VL: DIVMTQSPDSLAVSLGERATINCRASESVEYYGTSLMQWYQQKPGQPPKLLIYAASNVESGVPDRFSGSGSGTDFTLTISSLQAEDVAVYYCQQSWRVPFTFGQGTKLEIK
[A] 4.78
